# experiment_description: NCI Yeast Anticancer Drug Screen. Data for the sgs1 mgt1 strain (AID 161);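 also: 0% = growth of cultures given vehicle only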
# protocol_conditions: S. cerevisiae sgs1 mgt1 strain, at 50.0 µM
About 79,000 compounds went through this panel and 15% of them were active in at least one assay; those are over-represented in the sample as a whole. Activity calls are given as the source filed them. Rule as the data show it: active = growth inhibition above about 70%; inactive = the rest.
Outcome (select one): True (active), False (inactive)

N#CCC(=O)c1ccc(N)cc1 ... False

Test call, this compound: C/C=C(\C)C(=O)N1c2ccccc2CC1c1c(C)[nH]c2ccccc12 (stereo unspecified)
False

Test call, this compound: CCCCCCCCCCCCCCC(CCCCCCCCCCCCCC)c1ccccc1
False

* * *

Give growth inhibition for every item shown.
# experiment_description: NCI Yeast Anticancer Drug Screen. Data for the rad50 strain (AID 155);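 also: 0% = growth of vehicle-only cultures of the same strain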
# protocol_conditions: S. cerevisiae rad50 strain growth inhibition; at 50.0 µM; stronger effect = higher value
The panel holds about 79,000 compounds, 15% with a hit somewhere; the sample as a whole holds those more often. Where a SMILES comes first, the peptide text is derived from it. [ ]: non-standard residue; d: D form. The star is where a group is joined. NMeAc5c = CNC1(C(=O)O)CCCC1; Boc = CC(C)(C)OC(=O)*; OBn = c1ccc(CO*)cc1
Give bare numbers, in %.

Here is how some compounds turned out for growth inhibition.
CN(C(=O)C(Cc1ccccc1)NC(=O)OC(C)(C)C)C1(C(=O)NC(Cc2ccccc2)C(=O)OCc2ccccc2)CCCC1 (stereo not drawn) (Boc-Phe-[NMeAc5c]-Phe-OBn; configuration not given here) ... -3.35
Nc1ncnc2c1ccn2Cc1c(F)cccc1Cl ... -0.8
COc1cccc2c1C(c1ccc3ccccc3c1)OC2=O (stereo not drawn) ... -22.2
COC(=O)c1c(C)ccc(C)c1C(=O)c1c(C)cc(C)cc1C ... -14.6
O=C(O)C(=O)Cc1c[nH]c2ccccc12 ... 1.2
Cc1cc([N+](=O)[O-])c2ncccc2c1 ... -12.3
CCCc1cc(=O)oc2c3c(c4c(c12)OC(C)(C)C=C4)OC(C)[C@H](C)[C@@H]3O (stereo partly drawn) ... 14.4
CC(=O)NC(CSCN(C)c1nc(N(C)C)nc(N(C)C)n1)C(=O)O (stereo not drawn) ... 7.5
O=C(NC(=O)C(F)(F)C(F)(F)F)Nc1cc(F)ccc1F ... 5.15
Cc1cc(-c2ccc([NH2+][B-](F)(F)F)c(C)c2)ccc1[NH2+][B-](F)(F)F ... -9.15

Go through the items and report each one's growth inhibition.
1. CSC(=N\N=C\c1c(F)cccc1Cl)/N=C/N(C)C
2. Cc1ccc2ccc(C)nc2c1
3. COc1ccc(/C=c2\sc3n(c2=O)C(N)=C(C#N)C(c2ccc(OC)cc2)C=3c2nc3ccccc3[nH]2)cc1 (stereo not drawn)

1. 8.7
2. 15.8
3. 18.1
